Tested on: HOP-92 NSCLC
run.description: NCI tumour cell line growth inhibition, 48 h
measured.attribute: GI50

Qu. Lab note: record GI50 of CCN(CC)CCOc1ccc(Nc2ncc3cc(-c4c(Cl)cccc4Cl)c(=O)n(CCOC)c3n2)cc1 tested on HOP-92 NSCLC.
Ans. 0.0163 µM

Qu. Quote HOP-92 NSCLC GI50 for entry N#Cc1c2ccccc2c2n1-c1ccccc1OC(c1ccccc1)C2=O (stereo not given) .
Ans. 2.01 µM

Qu. Provide the reported GI50 (system: HOP-92 NSCLC) for COc1ccc(C2=CC(c3cc(OC)c(OC)c(OC)c3)NC(=O)N2)cc1OC (stereo not given)
Ans. 12.5 µM

Qu. Enter measured GI50, system HOP-92 NSCLC, for the compound shown: COC(=O)Nc1nc2ccc(Oc3ccc(NC(=O)Nc4cccc(Br)c4)cc3)cc2[nH]1
Ans. 3.33 µM

Qu. Specify the recorded GI50 for CCc1ccc(-c2ccc(=O)n(-c3ccc(S(N)(=O)=O)cc3)n2)cc1 , system: HOP-92 NSCLC.
Ans. 5.55 µM

====

Tested on: MCF7 breast
run.description: NCI tumour cell line growth inhibition, 48 h; in the data active = GI50 below about 0.43 µM; inactive = the rest
Hi there, use one of these labels in your reply, thanks! active, inactive

Qu. State the result this test recorded for COc1cc(C(=O)/C=C/c2c(-c3ccc(F)cc3)nc3sc(C)cn23)cc(OC)c1OC .
Ans. inactive

Qu. Which outcome did this test record for the compound Cc1cccc2nc3cccc(C(=O)NCCC[N+](C)(CCCNC(=O)c4cccc5nc6cccc(C)c6nc45)Cc4c([N+](=O)[O-])ncn4C)c3nc12 ?
Ans. inactive

Qu. Answer briefly: the call reported for O=C1c2ccccc2-c2nccc3cc(Cl)nc1c23 in this assay.
Ans. inactive

Qu. Returns: the outcome recorded for C[C@]12CC/C(=N\N)C[C@@H]1CC[C@@H]1[C@@H]2CC[C@]2(C)/C(=N/N)CC[C@@H]12 in this assay.
Ans. inactive

Qu. For COc1ccc(Nc2ncccc2/C=C/C(=O)c2cc(OC)c(OC)c(OC)c2)cc1 , which call appears in the assay record?
Ans. inactive

Qu. Query: recorded result category for CCOC(=O)c1c2c(n3ccc(NC(=O)OC(C)(C)C)cc13)C(=O)c1ncccc1C2=O in this test
Ans. active

Qu. Hello, I am checking results. What call was entered for Cc1ccccc1S(=O)(=O)N1[C@H](c2ccc(Cl)cc2)C(C(=O)N[C@@H](Cc2ccccc2)C(N)=O)=C[C@@H]1C(C)(C)C ?
Ans. inactive

Qu. What is the recorded call for this compound in the test? COc1cc2c(c(OC)c1OC)-c1ccc(NNC(=S)N(Cc3cccc(C[N+](Cc4cccc(CNC56CC7CC(CC(C7)C5)C6)c4)(Cc4cccc(CNC56CC7CC(CC(C7)C5)C6)c4)Cc4cccc(CN(C(=S)NNc5ccc6c(cc5=O)[C@@H](NC(C)=O)CCc5cc(OC)c(OC)c(OC)c5-6)C56CC7CC(CC(C7)C5)C6)c4)c3)C34CC5CC(CC(C5)C3)C4)c(=O)cc1[C@@H](NC(C)=O)CC2 (stereo partly drawn)
Ans. inactive

Qu. Answer briefly: the call reported for O=c1[nH]cnc2c1nnn2C1OC(CO)C(O)C1O (stereo not drawn) in this assay.
Ans. inactive

Qu. # outcome recorded in this test, key = NC(=O)C(Br)CBr (stereo not drawn)
Ans. inactive

Qu. # lookup: test call for COc1ccc(Nc2ccnc(NCCNc3ccnc4cc(Cl)ccc34)n2)cc1
Ans. inactive

Qu. Which outcome was entered for the compound COc1ccc(C(O)c2cc3c(N)c(C(=O)Nc4cccc(Cl)c4C)sc3nc2C)cc1 (stereo not drawn) in this test?
Ans. inactive

Qu. Write down the call the test reported for this compound. Item: CCN(CC)CCOc1ccc(Nc2ncc3cc(-c4c(Cl)cccc4Cl)c(=O)n(CCOC)c3n2)cc1
Ans. inactive

Qu. Returns: the outcome recorded for CCCCCCOc1ccc(/C=N/NC(N)=S)cc1 in this assay.
Ans. inactive

Qu. Just curious, what result did Cc1nc2cncc(C#Cc3cncc(C(=O)Nc4ccc(CN5CCN(C)CC5)c(C(F)(F)F)c4)c3)c2nc1C get here?
Ans. inactive

Qu. Look up the recorded call for COc1ccc(C2=CC(c3cc(OC)c(OC)c(OC)c3)NC(=O)N2)cc1OC (stereo not drawn) in this test.
Ans. inactive

Qu. Short answer needed: outcome of this test for OCCCCC#Cc1ccccc1C#Cc1ccccc1F ?
Ans. inactive

Qu. Returns: the outcome recorded for CC(=N\O)/C(C)=N/O.CC(=N\O)/C(C)=N/O.CC(=N\O)/C(C)=N/O.CC(=N\O)/C(C)=N/O.[Cu].[Cu] in this assay.
Ans. inactive
